Quick list: pEC50 per entry.
experimental.system: UniProtKB P00347
measurement.notes: Induction of degradation of hamster HMGCR (TM1-8)-GFP (1 to 346 residues) transfected in CHO-7 cells incubated for 16 hrs in sterol-depleted medium by fluorescence based microplate reader assay
Assay type: cell-based
# pEC50: negative log10 of molar concentration; output just the value

For orientation, consider the following solved cases.
structure.as.smiles | pEC50
CC(=O)n1ncc2c1C(C)(C)C1=CC[C@H]3[C@@H]4CC[C@H]([C@H](C)CCC(=O)N5CCOCC5)[C@@]4(C)CC[C@@H]3[C@@]1(C)C2 | 6.66
CC(=O)N1CCC(NC(=O)CC[C@@H](C)[C@H]2CC[C@H]3[C@@H]4CC=C5C(C)(C)c6c(cnn6C(C)=O)C[C@]5(C)[C@H]4CC[C@]23C)CC1 | 6.37

Now take the following compound into account.
Entry under test: `CC(=O)n1ncc2c1C(C)(C)C1=CC[C@H]3[C@@H]4CC[C@H]([C@H](C)CCC(=O)Nc5ccccc5C)[C@@]4(C)CC[C@@H]3[C@@]1(C)C2` . Its pEC50 was 5.35

====

experimental.system: 3-hydroxy-3-methylglutaryl-coenzyme A reductase (Cricetulus griseus)
Sequence (P00347 whole entry): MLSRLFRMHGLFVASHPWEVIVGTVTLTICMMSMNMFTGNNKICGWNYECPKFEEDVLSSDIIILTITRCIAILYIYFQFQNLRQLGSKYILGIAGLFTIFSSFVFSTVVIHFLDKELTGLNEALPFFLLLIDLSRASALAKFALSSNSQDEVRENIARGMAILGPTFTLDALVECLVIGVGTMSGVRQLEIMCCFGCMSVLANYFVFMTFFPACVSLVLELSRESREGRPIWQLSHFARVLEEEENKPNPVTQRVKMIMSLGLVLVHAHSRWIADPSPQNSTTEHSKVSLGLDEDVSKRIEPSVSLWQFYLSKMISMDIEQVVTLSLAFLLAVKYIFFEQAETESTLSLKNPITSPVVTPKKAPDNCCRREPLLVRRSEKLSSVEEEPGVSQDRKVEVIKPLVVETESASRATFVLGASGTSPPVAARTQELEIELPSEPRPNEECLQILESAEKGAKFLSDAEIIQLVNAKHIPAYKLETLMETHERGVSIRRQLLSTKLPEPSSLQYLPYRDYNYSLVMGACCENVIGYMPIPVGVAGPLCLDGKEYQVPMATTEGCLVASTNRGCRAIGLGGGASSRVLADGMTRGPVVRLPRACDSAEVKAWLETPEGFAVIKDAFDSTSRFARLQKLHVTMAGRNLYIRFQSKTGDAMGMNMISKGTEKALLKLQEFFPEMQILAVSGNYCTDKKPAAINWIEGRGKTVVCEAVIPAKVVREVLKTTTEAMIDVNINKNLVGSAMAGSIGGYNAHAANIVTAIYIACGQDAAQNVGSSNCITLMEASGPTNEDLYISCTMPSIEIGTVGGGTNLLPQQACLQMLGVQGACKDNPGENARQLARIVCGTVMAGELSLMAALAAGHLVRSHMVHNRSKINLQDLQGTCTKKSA
measurement.notes: Induction of degradation of endogenous HMGCR in CHO-7 cells assessed as decrease in protein level incubated for 16 hrs in sterol-depleted medium by immunoblot analysis
Type: cell-based
experimental.readout: EC50 (nM)
Please give a number only; it is taken to be in nM.

Looking up `CC(=O)n1ncc2c1C(C)(C)C1=CC[C@H]3[C@@H]4CC[C@H]([C@H](C)CCC(=O)N5CCOCC5)[C@@]4(C)CC[C@@H]3[C@@]1(C)C2` , I see its EC50 listed as 130

====

experimental.system: 3-hydroxy-3-methylglutaryl-coenzyme A reductase (Cricetulus griseus)
measurement.notes: Induction of degradation of hamster HMGCR (TM1-8)-GFP (1 to 346 residues) transfected in CHO-7 cells incubated for 16 hrs in sterol-depleted medium by fluorescence based microplate reader assay
Format: cell-based
One threshold, 1000 nM, splits the recorded EC50 values: lower ones are 1.0, equal or higher ones are 0.0.

Past entries and their recorded results:
structure.as.smiles | label
CC(=O)n1cnc2c1C(C)(C)C1=C[C@H](O)[C@H]3[C@@H]4CC[C@H]([C@H](C)CCC(=O)N5CCOCC5)[C@@]4(C)CC[C@@H]3[C@@]1(C)C2 | 0.0
C[C@H](CCC(=O)N1CCOCC1)[C@H]1CC[C@H]2[C@@H]3CC=C4C(C)(C)c5nnsc5C[C@]4(C)[C@H]3CC[C@]12C | 1.0
CCOC(=O)c1noc2c1C[C@@]1(C)C(=CC[C@H]3[C@@H]4CC[C@H]([C@H](C)CCC(=O)N5CCOCC5)[C@@]4(C)CC[C@@H]31)C2(C)C | 0.0

Here is another molecule to look at.
Q: Please check: EC50 for `CC(=O)n1ncc2c1C(C)(C)C1=CC[C@H]3[C@@H]4CC[C@H]([C@H](C)CCC(=O)Nc5nc6ccccc6s5)[C@@]4(C)CC[C@@H]3[C@@]1(C)C2` , strictly under 1000 nM or not?
A: 0.0

====

experimental.system: UniProt:P00347
Sequence (P00347 whole entry): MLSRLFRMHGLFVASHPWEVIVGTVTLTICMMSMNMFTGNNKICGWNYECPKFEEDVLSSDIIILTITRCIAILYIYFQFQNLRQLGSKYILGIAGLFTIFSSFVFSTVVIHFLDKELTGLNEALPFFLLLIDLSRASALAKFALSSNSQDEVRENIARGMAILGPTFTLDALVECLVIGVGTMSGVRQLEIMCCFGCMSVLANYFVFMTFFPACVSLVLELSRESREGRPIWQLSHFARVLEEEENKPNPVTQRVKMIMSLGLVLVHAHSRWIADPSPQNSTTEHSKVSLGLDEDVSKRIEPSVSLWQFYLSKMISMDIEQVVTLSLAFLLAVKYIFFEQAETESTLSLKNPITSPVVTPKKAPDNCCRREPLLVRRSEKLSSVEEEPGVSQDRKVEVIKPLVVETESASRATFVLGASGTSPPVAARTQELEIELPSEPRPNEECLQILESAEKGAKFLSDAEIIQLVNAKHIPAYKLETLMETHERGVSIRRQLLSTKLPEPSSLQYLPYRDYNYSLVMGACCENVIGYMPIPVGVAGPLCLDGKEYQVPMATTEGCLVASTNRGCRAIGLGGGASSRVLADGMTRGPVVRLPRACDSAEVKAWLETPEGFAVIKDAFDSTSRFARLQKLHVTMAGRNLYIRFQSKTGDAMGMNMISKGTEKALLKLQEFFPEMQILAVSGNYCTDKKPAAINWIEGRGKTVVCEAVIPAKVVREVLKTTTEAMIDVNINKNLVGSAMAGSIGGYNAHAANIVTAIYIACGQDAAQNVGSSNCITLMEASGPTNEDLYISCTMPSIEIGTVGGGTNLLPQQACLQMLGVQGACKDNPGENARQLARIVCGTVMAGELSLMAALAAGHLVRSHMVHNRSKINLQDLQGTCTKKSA
measurement.notes: Induction of degradation of hamster HMGCR (TM1-8)-GFP (1 to 346 residues) transfected in CHO-7 cells incubated for 16 hrs in sterol-depleted medium by fluorescence based microplate reader assay
Type: cell-based
pEC50: −log10 of the molar value.
Please use MET whenever pEC50 is not below 6, and NOT MET whenever it is.

See these solved cases before continuing.
structure.as.smiles | label
CC(=O)n1cnc2c1C(C)(C)C1=CC[C@H]3[C@@H]4CC[C@H]([C@H](C)CC(=O)N5CCOCC5)[C@@]4(C)CC[C@@H]3[C@@]1(C)C2 | MET
CC(=O)n1ncc2c1C(C)(C)C1=CC[C@H]3[C@@H]4CC[C@H]([C@H](C)CCC(=O)Nc5ncc([N+](=O)[O-])s5)[C@@]4(C)CC[C@@H]3[C@@]1(C)C2 | NOT MET
CCC(O)(CC)CCCC[C@@H](C)[C@H]1CC[C@H]2[C@@H]3[C@@H](O)C=C4C(C)(C)[C@@H](O)CC[C@]4(C)[C@H]3CC[C@]12C | MET
CCCNC(=O)CC[C@@H](C)[C@H]1CC[C@H]2[C@@H]3CC=C4C(C)(C)c5c(cnn5C(C)=O)C[C@]4(C)[C@H]3CC[C@]12C | NOT MET
CCC(=O)n1cnc2c1C(C)(C)C1=CC[C@H]3[C@@H]4CC[C@H]([C@H](C)CCC(=O)N5CCOCC5)[C@@]4(C)CC[C@@H]3[C@@]1(C)C2 | MET

Q: Tell me whether pEC50 is at least 6 here: `CCC(O)(CC)CCC[C@@H](C)[C@H]1CC[C@H]2[C@@H]3[C@@H](O)C=C4C(C)(C)[C@@H](O)CC[C@]4(C)[C@H]3CC[C@]12C`
A: MET

Q: Decide: pEC50 of `CC(=O)n1ncc2c1C(C)(C)C1=CC[C@H]3[C@@H]4CC[C@H]([C@H](C)CCC(=O)NC5CCOCC5)[C@@]4(C)CC[C@@H]3[C@@]1(C)C2` >= 6?
A: MET

Q: Please tell me: is the molecule `CCC(O)(CC)CC[C@@H](C)[C@H]1CC[C@H]2[C@@H]3CC=C4C(C)(C)c5c(ncn5C(C)=O)C[C@]4(C)[C@H]3CC[C@]12C` at or over 6 in terms of pEC50?
A: MET

Q: Determine whether this molecule has pEC50 no lower than 6: `Cc1nc2c(s1)C(C)(C)C1=CC[C@H]3[C@@H]4CC[C@H]([C@H](C)CCC(=O)O)[C@@]4(C)CC[C@@H]3[C@@]1(C)C2`
A: NOT MET

Q: hey, is pEC50 for this one >= 6? `C[C@H](CCC(=O)O)[C@H]1CC[C@H]2[C@@H]3CC=C4C(C)(C)c5[nH]ncc5C[C@]4(C)[C@H]3CC[C@]12C`
A: NOT MET

Q: Identify whether the reported pEC50 of the following molecule is 6 or greater: `C[C@H](CCC(=O)O)[C@H]1CC[C@H]2[C@@H]3CC=C4C(C)(C)c5c(cnn5-c5ccccc5)C[C@]4(C)[C@H]3CC[C@]12C`
A: NOT MET
